Tested on: Crj: CD(SD)IGS rats
Experiment: Urinary PAG/hippuric acid ratio by 1H NMR in rats
Conditions: rat urine, 100 mg/kg/day by gavage, 3 days, mean n = 3-4
MEASURED_METRIC: PAG + hippuric acid/creatinine
Please state the value as a number alone, without comment.

MOLECULE	ENDPOINT_RESULT
CNCCC(Oc1ccc(C(F)(F)F)cc1)c1ccccc1 (centres unmarked) [Fluoxetine, fluoxetine]	1.06

QUERY: Name the recorded PAG + hippuric acid/creatinine of the molecule listed here: CN(C)CCCN1c2ccccc2CCc2ccccc21 [Imipramine, imipramine]
RESULT: 1.21

QUERY: Name the recorded PAG + hippuric acid/creatinine of the molecule listed here: CN(C)CCCN1c2ccccc2CCc2ccc(Cl)cc21 [Clomipramine, clomipramine]
RESULT: 1.42

QUERY: Name the recorded PAG + hippuric acid/creatinine of the molecule listed here: CN(C)CCCN1c2ccccc2Sc2ccc(Cl)cc21 [Chlorpromazine, chlorpromazine]
RESULT: 1.45

QUERY: Name the recorded PAG + hippuric acid/creatinine of the molecule listed here: CC/C(=C(\c1ccccc1)c1ccc(OCCN(C)C)cc1)c1ccccc1 [Tamoxifen, tamoxifen]
RESULT: 1.34

====

Tested on: Crj: CD(SD)IGS rats
Details: rat, in vivo, 100 mg/kg/day
MEASURED_METRIC: Histopathological changes (PLsis): Lymph node

COMPOUND	TGT	ENDPOINT_RESULT
COc1ccc([C@]2(C#N)CC[C@@H](C(=O)O)CC2)cc1OC1CCCC1 [Ariflo]	Crj: CD(SD)IGS rats	−
CC/C(=C(\c1ccccc1)c1ccc(OCCN(C)C)cc1)c1ccccc1 [Tamoxifen, tamoxifen]	Crj: CD(SD)IGS rats	+
CN(C)CCCN1c2ccccc2CCc2ccc(Cl)cc21 [Clomipramine, clomipramine]	Crj: CD(SD)IGS rats	−
CCCCc1oc2ccccc2c1C(=O)c1cc(I)c(OCCN(CC)CC)c(I)c1 [Amiodarone]	Crj: CD(SD)IGS rats	−
CN(C)CCCN1c2ccccc2Sc2ccc(Cl)cc21 [Chlorpromazine, chlorpromazine]	Crj: CD(SD)IGS rats	−
COc1ccc(C2CNC(=O)C2)cc1OC1CCCC1 (stereo not shown) [Rolipram, rolipram]	Crj: CD(SD)IGS rats	−

The record that follows has no Histopathological changes (PLsis): Lymph node shown yet.
QUERY: // fetch Histopathological changes (PLsis): Lymph node for CNCCC(Oc1ccc(C(F)(F)F)cc1)c1ccccc1 (stereo not shown) [Fluoxetine, fluoxetine] ; system: Crj: CD(SD)IGS rats
RESULT: +

====

Test system: Crj: CD(SD)IGS rats
Conditions: rat, in vivo, 1000 mg/kg/day
MEASURED_METRIC: Histopathological changes (PLsis): Liver

COMPOUND	MEASURED_METRIC	ENDPOINT_RESULT
CC/C(=C(\c1ccccc1)c1ccc(OCCN(C)C)cc1)c1ccccc1 [Tamoxifen, tamoxifen]	Histopathological changes (PLsis): Liver	+
CN(C)CCCN1c2ccccc2Sc2ccc(Cl)cc21 [Chlorpromazine, chlorpromazine]	Histopathological changes (PLsis): Liver	−
CN(C)CCCN1c2ccccc2CCc2ccc(Cl)cc21 [Clomipramine, clomipramine]	Histopathological changes (PLsis): Liver	+
CCCCc1oc2ccccc2c1C(=O)c1cc(I)c(OCCN(CC)CC)c(I)c1 [Amiodarone]	Histopathological changes (PLsis): Liver	−

====

Test system: Crj: CD(SD)IGS rats
Details: rat, in vivo, 1000 mg/kg/day
MEASURED_METRIC: Histopathological changes (PLsis): Lung

MOLECULAR_STRING	MEASURED_METRIC	ENDPOINT_RESULT
CN(C)CCCN1c2ccccc2CCc2ccc(Cl)cc21	Histopathological changes (PLsis): Lung	−
CC/C(=C(\c1ccccc1)c1ccc(OCCN(C)C)cc1)c1ccccc1	Histopathological changes (PLsis): Lung	+
CCCCc1oc2ccccc2c1C(=O)c1cc(I)c(OCCN(CC)CC)c(I)c1	Histopathological changes (PLsis): Lung	+
CN(C)CCCN1c2ccccc2Sc2ccc(Cl)cc21	Histopathological changes (PLsis): Lung	−

====

System: Crj: CD(SD)IGS rats
Details: rat, in vivo, 100 mg/kg/day
MEASURED_METRIC: Histopathological changes (PLsis): Lung

Answered examples (6):
COMPOUND	TGT	MEASURED_METRIC	ENDPOINT_RESULT
CCCCc1oc2ccccc2c1C(=O)c1cc(I)c(OCCN(CC)CC)c(I)c1	Crj: CD(SD)IGS rats	Histopathological changes (PLsis): Lung	−
COc1ccc([C@]2(C#N)CC[C@@H](C(=O)O)CC2)cc1OC1CCCC1	Crj: CD(SD)IGS rats	Histopathological changes (PLsis): Lung	−
CNCCC(Oc1ccc(C(F)(F)F)cc1)c1ccccc1 (stereo not shown)	Crj: CD(SD)IGS rats	Histopathological changes (PLsis): Lung	+
COc1ccc(C2CNC(=O)C2)cc1OC1CCCC1 (stereo not shown)	Crj: CD(SD)IGS rats	Histopathological changes (PLsis): Lung	−
CN(C)CCCN1c2ccccc2CCc2ccc(Cl)cc21	Crj: CD(SD)IGS rats	Histopathological changes (PLsis): Lung	−
CC/C(=C(\c1ccccc1)c1ccc(OCCN(C)C)cc1)c1ccccc1	Crj: CD(SD)IGS rats	Histopathological changes (PLsis): Lung	+

The record that follows has no Histopathological changes (PLsis): Lung shown yet.
QUERY: Name the recorded Histopathological changes (PLsis): Lung of the compound listed here: `CN(C)CCCN1c2ccccc2Sc2ccc(Cl)cc21`
RESULT: −

====

Tested on: Crj: CD(SD)IGS rats
Conditions: rat, in vivo, 300 mg/kg/day
MEASURED_METRIC: Histopathological changes (PLsis): Liver

COMPOUND	ENDPOINT_RESULT
CC/C(=C(\c1ccccc1)c1ccc(OCCN(C)C)cc1)c1ccccc1	+
CCCCc1oc2ccccc2c1C(=O)c1cc(I)c(OCCN(CC)CC)c(I)c1	−
CN(C)CCCN1c2ccccc2Sc2ccc(Cl)cc21	−
CN(C)CCCN1c2ccccc2CCc2ccc(Cl)cc21	−

The record that follows has no Histopathological changes (PLsis): Liver shown yet.
QUERY: Name the recorded Histopathological changes (PLsis): Liver of the compound listed here: CNCCC(Oc1ccc(C(F)(F)F)cc1)c1ccccc1 (centres unmarked)
RESULT: +

====

Tested on: Crj: CD(SD)IGS rats
Conditions: rat, in vivo, 1000 mg/kg/day
MEASURED_METRIC: Histopathological changes (PLsis): Lymph node

MOLECULAR_STRING	ENDPOINT_RESULT
CC/C(=C(\c1ccccc1)c1ccc(OCCN(C)C)cc1)c1ccccc1	+
CCCCc1oc2ccccc2c1C(=O)c1cc(I)c(OCCN(CC)CC)c(I)c1	+
CN(C)CCCN1c2ccccc2Sc2ccc(Cl)cc21	−
CN(C)CCCN1c2ccccc2CCc2ccc(Cl)cc21	+

====

Test system: Crj: CD(SD)IGS rats
Experiment: Urinary PAG/hippuric acid ratio by 1H NMR in rats
Details: rat urine, 300 mg/kg/day by gavage, 3 days, mean n = 3-4
MEASURED_METRIC: hippuric acid/creatinine (second term of PAG + hippuric acid)

COMPOUND	ENDPOINT_RESULT
CNCCC(Oc1ccc(C(F)(F)F)cc1)c1ccccc1 (stereo not shown)	0.47

QUERY: Name the recorded hippuric acid/creatinine (second term of PAG + hippuric acid) of the compound listed here: `CN(C)CCCN1c2ccccc2CCc2ccc(Cl)cc21`
RESULT: 0.52

QUERY: Name the recorded hippuric acid/creatinine (second term of PAG + hippuric acid) of the compound listed here: `CC/C(=C(\c1ccccc1)c1ccc(OCCN(C)C)cc1)c1ccccc1`
RESULT: 0.53

QUERY: Name the recorded hippuric acid/creatinine (second term of PAG + hippuric acid) of the compound listed here: `CN(C)CCCN1c2ccccc2CCc2ccccc21`
RESULT: 0.31

====

Test system: Crj: CD(SD)IGS rats
Experiment: Urinary PAG/hippuric acid ratio by 1H NMR in rats
Details: rat urine, 100 mg/kg/day by gavage, 3 days, mean n = 3-4
MEASURED_METRIC: PAG/creatinine (first term of PAG + hippuric acid)

COMPOUND	ENDPOINT_RESULT
CNCCC(Oc1ccc(C(F)(F)F)cc1)c1ccccc1 (centres unmarked)	0.27

The record that follows has no PAG/creatinine (first term of PAG + hippuric acid) shown yet.
QUERY: Name the recorded PAG/creatinine (first term of PAG + hippuric acid) of the compound listed here: `CN(C)CCCN1c2ccccc2CCc2ccc(Cl)cc21`
RESULT: 0.20

====

Test system: Crj: CD(SD)IGS rats
Experiment: Urinary PAG/hippuric acid ratio by 1H NMR in rats
Settings: rat urine, 100 mg/kg/day by gavage, 3 days, mean n = 3-4
The label depends only on hippuric acid/creatinine (second term of PAG + hippuric acid): t if it is at least 1, f if it is smaller.

MOLECULE	GROUP
CN(C)CCCN1c2ccccc2CCc2ccccc21 [Imipramine, imipramine]	f
CN(C)CCCN1c2ccccc2Sc2ccc(Cl)cc21 [Chlorpromazine, chlorpromazine]	t
CN(C)CCCN1c2ccccc2CCc2ccc(Cl)cc21 [Clomipramine, clomipramine]	t

Next molecule, please.
QUERY: hippuric acid/creatinine (second term of PAG + hippuric acid) >= 1 for CNCCC(Oc1ccc(C(F)(F)F)cc1)c1ccccc1 (centres unmarked) [Fluoxetine, fluoxetine] ?
RESULT: f
